- experimental details: In vitro stability in pH 1.2 solution (USP Gastric fluid without enzymes)
- assay setup: Time 0.5 h, 37° C.
Below is a list of entries, each paired with its recorded compound remaining in pH = 1.2 solution (%) value.
State just the number; it will be interpreted in %.

Just so you know, measured compound remaining in pH = 1.2 solution (%) for COc1cc(/C=C/c2ccc(OC(=O)OCCNC(=O)C(N)Cc3ncc[nH]3)cc2)cc(OC)c1.Cl.Cl (stereo not drawn) came out at 109.8

Just so you know, measured compound remaining in pH = 1.2 solution (%) for `COc1cc(/C=C/c2ccc(OC(=O)OCCNC(=O)CN)cc2)cc(OC)c1.Cl` came out at 104.0

Just so you know, measured compound remaining in pH = 1.2 solution (%) for `CCOc1cc(/C=C/c2ccc(OC(=O)OCCNC(=O)CN)cc2)cc(OCC)c1.Cl` came out at 103.9

Just so you know, measured compound remaining in pH = 1.2 solution (%) for `Cl.[2H]C([2H])([2H])Oc1cc(/C=C/c2ccc(OC(=O)OCCNC(=O)CN)cc2)cc(OC([2H])([2H])[2H])c1` came out at 101.2

Just so you know, measured compound remaining in pH = 1.2 solution (%) for COc1cc(/C=C/c2ccc(OC(=O)OCCNC(=O)C(N)C(C)C)cc2)cc(OC)c1.O=C(O)c1cccnc1 (stereo not drawn) came out at 113.4

Just so you know, measured compound remaining in pH = 1.2 solution (%) for `COc1cc(/C=C/c2ccc(OC(=O)OCCNC(=O)CN)cc2)cc(OC)c1.O=C(O)c1cccnc1` came out at 106.8

###

- experimental details: In vitro stability in pH 1.2 solution (USP Gastric fluid without enzymes)
- assay setup: Time 1 h, 37° C.
quantity measured: compound remaining in pH = 1.2 solution (%)
State just the number; it will be interpreted in %.

Just so you know, measured compound remaining in pH = 1.2 solution (%) for COc1cc(/C=C/c2ccc(OC(=O)OCCNC(=O)C(N)Cc3ncc[nH]3)cc2)cc(OC)c1.Cl.Cl (stereo not drawn) came out at 113.5

Just so you know, measured compound remaining in pH = 1.2 solution (%) for `COc1cc(/C=C/c2ccc(OC(=O)OCCNC(=O)CN)cc2)cc(OC)c1.O=C(O)c1cccnc1` came out at 101.0

Just so you know, measured compound remaining in pH = 1.2 solution (%) for `Cl.[2H]C([2H])([2H])Oc1cc(/C=C/c2ccc(OC(=O)OCCNC(=O)CN)cc2)cc(OC([2H])([2H])[2H])c1` came out at 119.4

Just so you know, measured compound remaining in pH = 1.2 solution (%) for COc1cc(/C=C/c2ccc(OC(=O)OCCNC(=O)C(N)C(C)C)cc2)cc(OC)c1.O=C(O)c1cccnc1 (stereo not drawn) came out at 123.9

Just so you know, measured compound remaining in pH = 1.2 solution (%) for `COc1cc(/C=C/c2ccc(OC(=O)OCCNC(=O)CN)cc2)cc(OC)c1.Cl` came out at 110.2

Just so you know, measured compound remaining in pH = 1.2 solution (%) for `CCOc1cc(/C=C/c2ccc(OC(=O)OCCNC(=O)CN)cc2)cc(OCC)c1.Cl` came out at 111.7

###

- Tested on: hepatic steatosis induced by MCD diet
- experimental details: Histological examination (H&E stain) of liver of MCD diet mice
- Format: in vivo, Male C57BL/6 mice
- assay setup: average of Scores of the group; 100 mg/kg oral, PG/TPSG (1:1)
quantity measured: Avg
Could you respond with only the numeric value?

Known results for compounds:
>>> reported_measurement("COc1cc(/C=C/c2ccc(OC(=O)OCCNC(=O)CN)cc2)cc(OC)c1.Cl")
7.75
>>> reported_measurement("COc1cc(/C=C/c2ccc(OC(=O)OCCNC(=O)CN)cc2)cc(OC)c1.O=C(O)c1cccnc1")
8.00
>>> reported_measurement("COc1cc(/C=C/c2ccc(OC(=O)OCCNC(=O)C(N)CC(C)C)cc2)cc(OC)c1.Cl (stereo not drawn)")
7.75

Just so you know, measured Avg for COc1cc(/C=C/c2ccc(OC(=O)OCCNC(=O)C(N)Cc3ncc[nH]3)cc2)cc(OC)c1.Cl.Cl (stereo not drawn) came out at 7.25

Just so you know, measured Avg for `CCOc1cc(/C=C/c2ccc(OC(=O)OCCNC(=O)CN)cc2)cc(OCC)c1.Cl` came out at 7.00

Just so you know, measured Avg for COc1cc(/C=C/c2ccc(OC(=O)OCCNC(=O)C(N)CC(N)=O)cc2)cc(OC)c1.Cl (stereo not drawn) came out at 7.75
